System: NCI/ADR-RES ovarian
Test: NCI-60 one-dose screen, 48 h
Conditions: 10 µM unless noted
About 83,000 compounds went through this panel and 20% of them were active in at least one assay; those are over-represented in the sample as a whole. The source made the active and inactive calls. How the source made its calls: active means growth percent below 10; inactive means the rest.
Classes used: active, inactive

CCN(CC)CCn1nc2c3c(cccc3c1=O)-c1ccccc1-2 ... inactive
O=C(Cc1ccc(F)c(F)c1)Nc1cc(C2(C(F)(F)F)CC2)nn1Cc1ccccc1 ... active
N#Cc1c(N)nn(C(=O)c2ccc(NC(=O)c3ccccn3)cc2)c1-c1ccc(Cl)cc1 ... inactive
COc1cc2c(cc1-c1c(C)noc1C)ncc1nc(C3CCC(F)(F)CC3)n(C3CCC(OC(F)F)CC3)c12 (stereo not given) ... inactive
COc1ccc(C(=O)COc2ccc(/C=C3\Oc4ccccc4C3=O)cc2)cc1 ... inactive

Hey, just so you know, these numbers are from PubChem BioAssay (NCI).
